target_or_system: rKv4.3 (Ito) channel (Rattus norvegicus)
Sequence (Q62897 1-655): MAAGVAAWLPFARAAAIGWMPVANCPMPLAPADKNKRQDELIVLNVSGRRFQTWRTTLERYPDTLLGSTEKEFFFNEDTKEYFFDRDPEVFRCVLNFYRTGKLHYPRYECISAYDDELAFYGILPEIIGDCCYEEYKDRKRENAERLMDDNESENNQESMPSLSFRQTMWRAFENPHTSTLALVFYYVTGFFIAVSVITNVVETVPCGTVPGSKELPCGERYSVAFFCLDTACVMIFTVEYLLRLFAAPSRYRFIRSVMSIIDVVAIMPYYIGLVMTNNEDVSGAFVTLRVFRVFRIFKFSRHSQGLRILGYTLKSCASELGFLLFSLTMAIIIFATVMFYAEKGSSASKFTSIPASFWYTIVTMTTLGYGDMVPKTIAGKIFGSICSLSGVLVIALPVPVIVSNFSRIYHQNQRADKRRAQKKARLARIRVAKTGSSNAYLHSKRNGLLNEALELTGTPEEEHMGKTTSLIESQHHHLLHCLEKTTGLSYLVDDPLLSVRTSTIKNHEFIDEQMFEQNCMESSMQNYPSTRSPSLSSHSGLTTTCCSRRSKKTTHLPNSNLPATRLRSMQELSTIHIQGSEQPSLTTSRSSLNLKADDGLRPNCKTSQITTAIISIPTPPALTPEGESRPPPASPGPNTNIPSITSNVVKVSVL
measurement_protocol: voltage clamp current block, rKv4.3 channel in stably transfected mammalian cells
condition_parameters: Ito (rKv4.3); 0.067 Hz, 4 bpm
parameter: pIC50
Kindly note that pIC50 refers to -log10 of the concentration in mol/L and answer with the value alone.

# pIC50 (molecule: Fc1ccc(C(OCCN2CCN(CCCc3ccccc3)CC2)c2ccc(F)cc2)cc1 [Vanoxerine, vanoxerine] ) is 4.92
